Listed molecules paired with reported pIC50
Test system: MCF7
Test: Antiproliferative against multidrug-resistant human MCF7 cells after 72 hrs by MTT assay
Format: functional, cell-based
Conditions: MCF7, 72 h
pIC50: −log10 of the molar value.
ASSAY_ENDPOINT: pIC50

CC(=O)O[C@@]12CO[C@@H]1C[C@H](O)[C@@]1(C)C(=O)[C@H](O)C3=C(C)[C@@H](OC(=O)[C@H](OC(=O)c4cnc5ccccc5c4)[C@@H](NC(=O)OC(C)(C)C)c4ccccc4)C[C@@](O)([C@@H](OC(=O)c4ccccc4)[C@H]21)C3(C)C    7.44
CC(=O)O[C@@]12CO[C@@H]1C[C@H](O)[C@@]1(C)C(=O)[C@H](O)C3=C(C)[C@@H](OC(=O)[C@H](OC(=O)c4ccc5ccccc5n4)[C@@H](NC(=O)OC(C)(C)C)c4ccccc4)C[C@@](O)([C@@H](OC(=O)c4ccccc4)[C@H]21)C3(C)C    8.03
COc1cc(C(=O)O[C@@H](C(=O)O[C@H]2C[C@@]3(O)[C@@H](OC(=O)c4ccccc4)[C@@H]4[C@]5(OC(C)=O)CO[C@@H]5C[C@H](O)[C@@]4(C)C(=O)[C@H](OC(C)=O)C(=C2C)C3(C)C)[C@@H](NC(=O)OC(C)(C)C)c2ccccc2)nc2ccccc12    7.74
CC(=O)O[C@H]1C(=O)[C@@]2(C)[C@H]([C@H](OC(=O)c3ccccc3)[C@]3(O)C[C@H](OC(=O)[C@H](OC(=O)c4cnc5ccccc5c4)[C@@H](NC(=O)OC(C)(C)C)c4ccccc4)C(C)=C1C3(C)C)[C@]1(OC(C)=O)CO[C@@H]1C[C@@H]2O    7.42
CC(=O)O[C@@]12CO[C@@H]1C[C@H](O)[C@@]1(C)C(=O)[C@H](O)C3=C(C)[C@@H](OC(=O)[C@H](OC(=O)c4ccc5ncccc5c4)[C@@H](NC(=O)OC(C)(C)C)c4ccccc4)C[C@@](O)([C@@H](OC(=O)c4ccccc4)[C@H]21)C3(C)C    8.06
CC(=O)O[C@@]12CO[C@@H]1C[C@H](O)[C@@]1(C)C(=O)[C@H](O)C3=C(C)[C@@H](OC(=O)[C@H](OC(=O)c4nccc5ccccc45)[C@@H](NC(=O)OC(C)(C)C)c4ccccc4)C[C@@](O)([C@@H](OC(=O)c4ccccc4)[C@H]21)C3(C)C    7.75
CC(=O)O[C@H]1C(=O)[C@@]2(C)[C@H]([C@H](OC(=O)c3ccccc3)[C@]3(O)C[C@H](OC(=O)[C@H](OC(=O)c4cc(-c5ccccc5)nc5ccccc45)[C@@H](NC(=O)OC(C)(C)C)c4ccccc4)C(C)=C1C3(C)C)[C@]1(OC(C)=O)CO[C@@H]1C[C@@H]2O    7.74
CC(=O)O[C@H]1C(=O)[C@@]2(C)[C@H]([C@H](OC(=O)c3ccccc3)[C@]3(O)C[C@H](OC(=O)[C@H](OC(=O)c4ccc5ccccc5n4)[C@@H](NC(=O)OC(C)(C)C)c4ccccc4)C(C)=C1C3(C)C)[C@]1(OC(C)=O)CO[C@@H]1C[C@@H]2O    7.62
CC(=O)O[C@H]1C(=O)[C@@]2(C)[C@H]([C@H](OC(=O)c3ccccc3)[C@]3(O)C[C@H](OC(=O)[C@H](OC(=O)c4ccc5ncccc5c4)[C@@H](NC(=O)OC(C)(C)C)c4ccccc4)C(C)=C1C3(C)C)[C@]1(OC(C)=O)CO[C@@H]1C[C@@H]2O    7.45
CC(=O)O[C@@]12CO[C@@H]1C[C@H](O)[C@@]1(C)C(=O)[C@H](O)C3=C(C)[C@@H](OC(=O)[C@H](OC(=O)c4cc(-c5ccccc5)nc5ccccc45)[C@@H](NC(=O)OC(C)(C)C)c4ccccc4)C[C@@](O)([C@@H](OC(=O)c4ccccc4)[C@H]21)C3(C)C    7.55
CC(=O)O[C@H]1C(=O)[C@@]2(C)[C@H]([C@H](OC(=O)c3ccccc3)[C@]3(O)C[C@H](OC(=O)[C@H](OC(=O)c4cn(C5CC5)c5cc(Cl)c(F)cc5c4=O)[C@@H](NC(=O)OC(C)(C)C)c4ccccc4)C(C)=C1C3(C)C)[C@]1(OC(C)=O)CO[C@@H]1C[C@@H]2O    7.41
CC(=O)O[C@H]1C(=O)[C@@]2(C)[C@H]([C@H](OC(=O)c3ccccc3)[C@]3(O)C[C@H](OC(=O)[C@H](OC(=O)c4nccc5ccccc45)[C@@H](NC(=O)OC(C)(C)C)c4ccccc4)C(C)=C1C3(C)C)[C@]1(OC(C)=O)CO[C@@H]1C[C@@H]2O    7.34
CC(=O)O[C@@]12CO[C@@H]1C[C@H](O)[C@@]1(C)C(=O)[C@H](O)C3=C(C)[C@@H](OC(=O)[C@H](OC(=O)c4cn(C5CC5)c5cc(Cl)c(F)cc5c4=O)[C@@H](NC(=O)OC(C)(C)C)c4ccccc4)C[C@@](O)([C@@H](OC(=O)c4ccccc4)[C@H]21)C3(C)C    7.67
COc1cc(C(=O)O[C@@H](C(=O)O[C@H]2C[C@@]3(O)[C@@H](OC(=O)c4ccccc4)[C@@H]4[C@]5(OC(C)=O)CO[C@@H]5C[C@H](O)[C@@]4(C)C(=O)[C@H](O)C(=C2C)C3(C)C)[C@@H](NC(=O)OC(C)(C)C)c2ccccc2)nc2ccccc12    7.59
CC(=O)O[C@@]12CO[C@@H]1C[C@H](O)[C@@]1(C)C(=O)[C@H](O)C3=C(C)[C@@H](OC(=O)[C@H](O)[C@@H](NC(=O)OC(C)(C)C)c4ccccc4)C[C@@](O)([C@@H](OC(=O)c4ccccc4)[C@H]21)C3(C)C    6.74
